# experimental details: NCI Yeast Anticancer Drug Screen. Data for the rad50 strain (AID 155);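 note: 0% = growth of vehicle-only cultures of the same strain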
# assay setup: S. cerevisiae rad50 strain growth inhibition; at 50.0 µM; stronger effect = higher value
# Procedure: Growth inhibition of yeast strains with defined genetic alterations is measured as a screen for potential anti-cancer activity. Selected strains with alterations in DNA damage repair or cell cycle control were exposed to compounds and growth inhibition was measured relative to vehicle treated controls. The strain used in this assay is rad50
The panel holds about 79,000 compounds, 15% with a hit somewhere; the sample as a whole holds those more often.
reported property: growth inhibition (%)
Expressed in %, but write only the number.

compound: O=NNc1nc(-c2ccccn2)nc2ccccc12
reported property: growth inhibition
unit of measurement: %
observed: 96.5

Input line: Sample CCC[N+]1=C(/C=C/c2cc(C)c3cccnc3c2O)C(C)(C)c2ccccc21 — what was its growth inhibition?
Output line: 93.7

Input line: Sample COc1ccccc1/C=C1\Sc2scc(-c3ccc(O)c(O)c3)[n+]2C1=O — what was its growth inhibition?
Output line: 98.9

Input line: Sample CC1=CC(=N/O)/C=CC/1=C(\C#N)c1ccccc1 — what was its growth inhibition?
Output line: 99.2

Input line: Sample O=C1c2ccccc2C(=O)c2c1ccc(O)c2O.[Cu] — what was its growth inhibition?
Output line: 98

Input line: Sample COC1OC2COC(c3ccccc3)OC2C(NC(=S)SCc2ccccc2)C1O (centres undefined) — what was its growth inhibition?
Output line: 99.4

Input line: Sample N=C(N)c1ccc(Oc2ccc(Oc3ccc(C(=N)N)cc3)cc2)cc1 — what was its growth inhibition?
Output line: 70.8

Input line: Sample O=C(O)c1ccccc1-c1c2cc([N+](=O)[O-])c(=O)c(Br)c-2oc2c(Br)c(O)c([N+](=O)[O-])cc12 — what was its growth inhibition?
Output line: 77.5

Input line: Sample O=C(CNC(=O)Nc1ccc(NC(=O)NCC(=O)Nc2ccc(C3=NCCN3)cc2)cc1)Nc1ccc(C2=NCCN2)cc1 — what was its growth inhibition?
Output line: 98.2

Input line: Sample CCN(CC)CCOc1c(Cl)c(Cl)c(Cl)c(Cl)c1Cl — what was its growth inhibition?
Output line: 71.7

Input line: Sample CCCCNCCC1(c2ccccc2)C(=O)Oc2ccccc21 (centres undefined) — what was its growth inhibition?
Output line: 63.2

====

# experimental details: NCI Yeast Anticancer Drug Screen. Data for the rad50 strain (AID 155);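 note: 0% = growth of vehicle-only cultures of the same strain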
# assay setup: S. cerevisiae rad50 strain growth inhibition; at 5.0 µM (retest, dose inferred, filed as 0.5); stronger effect = higher value
Compounds without any hit were thinned out: in the full panel of roughly 79,000, 15% have a hit.
reported property: growth inhibition (%)
Expressed in %, but write only the number.

compound: CCN(CC)CCNc1ccc(C)c2sc3c(OC)cccc3c(=O)c12
growth inhibition / %: 1
//
compound: c1ccc(-c2cc(N3CCCCC3)c(-c3ccccc3)o2)cc1
growth inhibition / %: -1
//
compound: CC(=O)Nc1ccc(/C=C2/NC(=S)N(/C=C3\C(=O)Oc4ccccc4C3=O)C2=O)cc1
growth inhibition / %: -10
//
compound: CCc1ccc2c(-c3ccccc3)c3ccccc3c(-c3ccccc3)c2c1
growth inhibition / %: 0
//
compound: CCCCCCCCN(CCCCCCCC)CC(O)c1ccc2cc3c(nc2c1)CCCC3 (centres undefined)
growth inhibition / %: -3
//
compound: CCCC#CC(O)(C(=O)OC1CCN(C)CC1)C1CCCCC1 (centres undefined)
growth inhibition / %: 34
//
compound: O=C1c2ccccc2C2N1CCCN2C(=O)c1sc2ccccc2c1Cl (centres undefined)
growth inhibition / %: 49
//
compound: CCCCCCCCCc1ccc(O)c(Cl)c1
growth inhibition / %: -28

Next item in the queue.
Input line: Sample CCCCCCC1CC(=O)C1(Cl)Cl (centres undefined) — what was its growth inhibition?
Output line: -9
